tested_system: T1, human Resistin-Like Molecule Beta (human, UniProt Q9BQ08 24-111, limits assumed)
T1 construct: also called hRELMβ; RELMβ
T1 sequence (looked up): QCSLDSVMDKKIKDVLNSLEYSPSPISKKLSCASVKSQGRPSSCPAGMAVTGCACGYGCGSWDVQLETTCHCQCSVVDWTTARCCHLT
procedure_summary: QC ELISA, hRELMβ coated 0.5 µg/well, IgG supernatant, FITC-goat anti-human IgG
property: binding result

1. Clone 1 rIgG (antibody, V domains shown, Fully human IgG1 converted from scFv, tested as supernatant of expressing cells; Possibly the same clone as Ab1) VH: EVQLLESGGGLVQPGGSLRLSCAASGFTFSSYAMSWVRQAPGKGLEWVSSISQRGRKTLYADSVKGRFTISRDNSKNTLYLQMNSLRAEDTAVYYCAKGLRRFDYWGQGTLVTVSS VL: DIQMTQSPSSLSASVGDRVTITCRASQSISSYLNWYQQKPGKAPKLLIYMASHLQSGVPSRFSGSGSGTDFTLTISSLQPEDFATYYCQQPRSTPLTFGQGTKVEIKR :: binds
